So I've got a bunch of molecules here, and I need their z-score values.
- test-summary: inhibitors of hydroxyurea-induced Chk1 phosphorylation, primary screen, imaging, HeLa, phospho-Chk1 antibody, percent positive cells (AID 1186)
- stated-conditions: hydroxyurea-induced phospho-Chk1 immunofluorescence imaging, higher = more signal
Just the number, please.

stdin: Quick check: z-score of CCCCCCCCCCC(O)C1C=CC2C(=O)N(C)C(=O)C2N1Nc1cc(OC)c(OC)c(OC)c1 (configuration not stated) ?
stdout: 0.569

stdin: Quick check: z-score of COCCCNC(=O)[C@@]1(c2ccc([N+](=O)[O-])cc2)CC(=O)N(C(C)C)[C@@H]1c1ccc(CO)cc1 ?
stdout: 0.0991

stdin: Quick check: z-score of CO[C@H]1O[C@H](CO)[C@@H](OC(=O)Nc2cccc(F)c2)[C@H](OC(=O)Nc2ccccc2-c2ccccc2)[C@H]1OC(=O)Nc1ccccc1-c1ccccc1 ?
stdout: -0.788

stdin: Quick check: z-score of COCCOC(=O)N1C(=O)[C@@]2(c3ccccc31)[C@H](c1ccccc1OCCO)N1[C@H](c3ccccc3)[C@H](c3ccccc3)OC(=O)[C@H]1[C@@H]2C(=O)N1CCCCCCC1 ?
stdout: 0.203

stdin: Quick check: z-score of O=C(N1CCOCC1)[C@@]1(CCS(=O)(=O)c2ccccc2)N=C(c2ccc(OCCCO)cc2)O[C@H]1c1ccccc1 ?
stdout: 0.0192

stdin: Quick check: z-score of C=C(C(=O)CC[C@H](OC(=O)c1ccccc1-c1ccccc1C(=O)O)c1ccccc1OCCO)C(C)C ?
stdout: -0.126

stdin: Quick check: z-score of CC(C)[C@H]1NC(=O)[C@@]23C(=O)N[C@@H](Cc4ccccc4)C2[C@H](C)[C@@]2(C)O[C@H]2C3/C=C/C/C=C\CNC(=O)[C@H](Cc2ccccc2)NC1=O (some centres not stated) ?
stdout: 0.174

---

So I've got a bunch of compounds here, and I need their z-score values.
- test-summary: basal MM1S mitochondrial membrane potential changes, profiling panel, cell-based, JC-1 fluorescence, 24 h, 100 nL compound (AID 1170); note: test concentration not given here
- stated-conditions: higher = more signal
Just the number, please.

stdin: Quick check: z-score of C=CCNC(=O)[C@H]1[C@@H]2C(=O)O[C@@H](c3ccccc3)[C@@H](c3ccccc3)N2[C@@H](c2ccc(OCCO)cc2)[C@]12C(=O)Nc1ccc(C#CCNC(N)=O)cc12 ?
stdout: 0.938

stdin: Quick check: z-score of CCOC(=O)C1=C[C@@H](C(C)(C)C)N(S(=O)(=O)c2ccc(C)cc2)[C@H]1c1cccc(Cl)c1 ?
stdout: -2.3

stdin: Quick check: z-score of CC(C)c1ccc(NN2C(C(O)Cc3ccccc3)C=CC3C(=O)N(c4ccccc4)C(=O)C32)cc1 (stereo not drawn) ?
stdout: 1.51

stdin: Quick check: z-score of O=c1cccc(-c2ccco2)o1 ?
stdout: -0.605

stdin: Quick check: z-score of C=CCC(OC(C)=O)[C@@H]1[C@@H](N(Cc2ccc(-c3cccc(C(F)(F)F)c3)o2)C(=O)c2cccc3ccccc23)c2cc(OCCCO)ccc2N1C(=O)Cc1ccc(OC)cc1 (stereo partly drawn) ?
stdout: -0.0799

stdin: Quick check: z-score of CCCCC(=C=CC[C@H](O)c1ccc(OCCO)cc1)C[C@H](O)c1cc(Cl)cc(Cl)c1O ?
stdout: -0.349

stdin: Quick check: z-score of COCCCNC(=O)[C@@H]1c2ccccc2C(=O)N(C2Cc3ccccc3C2)[C@H]1c1ccc(CO)cc1 ?
stdout: 0.494

stdin: Quick check: z-score of COCC1C2CC[C@H]3C(OCc4ccc(OC)cc4)OC[C@]4(C)[C@H]3C2=C(CN4C(=O)OC(C)(C)C)[C@H](C)C1COC (stereo partly drawn) ?
stdout: -1.22
